- Tested on: SK-N-SH neuroblastoma cells
- experiment.notes: Cytotoxicity assay, MTS viability
- Format: cell-based
- study.conditions: Homo sapiens, 72 hours
Overview of recorded IC50 for various compounds
I only need the number, in µM, no unit after it.

# count of solved cases: 7
compound	IC50 [µM]
CCC(C)c1ccc(NC(=O)C2CCN(S(=O)(=O)c3ccc4cc[nH]c4c3)CC2)cc1 (centres unmarked)	4.05
CC(C)c1ccc(NC(=O)c2ccn(S(=O)(=O)c3ccc4[nH]ccc4c3)n2)cc1F	9.71
CCC(C)c1cccc(NC(=O)c2ccn(S(=O)(=O)c3ccc4[nH]ccc4c3)c2)c1 (centres unmarked)	6.81
Cc1ccc(NC(=O)C2CCN(S(=O)(=O)c3ccc4[nH]ccc4c3)CC2)cc1O	32.6
CC(C)(C)c1ccc(S(=O)(=O)n2ccc(C(=O)Nc3ccc(C(F)(F)F)cc3)c2)cc1	18.2
CCC(C)c1ccc(NC(=O)N2CCN(S(=O)(=O)c3ccc4[nH]ccc4c3)CC2)cc1 (centres unmarked)	14.9
Cc1ccc(NC(=O)N2CCN(S(=O)(=O)c3ccc4[nH]ccc4c3)CC2)cc1O	31.5

QUERY: What IC50 value was documented for this compound, `O=C(Nc1ccc(C(F)(F)F)cc1)N1CCN(S(=O)(=O)c2ccc3[nH]ccc3c2)CC1` ?
RESULT: 22.9

###

- Tested on: A2780 ovarian cancer cells
- experiment.notes: Drug combination screen, 6x6 dose matrix, Bliss-independence synergy
- Assay type: cell-based
- study.conditions: combination with paclitaxel, Bliss score, 72 h (26*: 96-well plate format)
- Protocol: In vitro growth inhibition assays were performed as technical triplicate in two independent experiments and cell viability was assessed by Alamar Blue assay readout. […] Following 72 hours drug exposure, metabolic activity was detected by addition of 10% (v/v) Alamar Blue reagent to each assay well using a Multidrop Cambi (Thermo Scientific) and determined by measurement of fluorescence intensity (excitation 555 nm, emission 585 nm) using an EnSpire (Perkin Elmer) plate reader. […]
endpoint.name: Max. Synergy, Paclitaxel
Number only, no unit.

compound	Max. Synergy, Paclitaxel
O=C(Nc1ccc(F)cc1)c1ccn(S(=O)(=O)c2ccc3[nH]ccc3c2)c1	31.55

Now consider the entry below.
QUERY: What Max. Synergy, Paclitaxel value was documented for this compound, CCC(C)c1ccc(NC(=O)C2CCN(S(=O)(=O)c3ccc4[nH]ccc4c3)CC2)cc1 (stereo not drawn) ?
RESULT: 6.78

###

- System: A549 (NSCLC) cells
- experiment.notes: Anti-proliferative activity, Cell-Titre luminescent viability assay
- Format: cell-based
- study.conditions: Homo sapiens, 72 h exposure, Cell-Titre luminescent reagent
Mark met only for IC50 values smaller than 7 µM; exact matches and larger values are not met.

QUERY: Is IC50 of CCC(C)c1ccc(NC(=O)N2CCN(S(=O)(=O)c3cc(C(N)=O)n(C)c3)CC2)cc1 (centres unmarked) strictly below 7 µM?
RESULT: not met

###

- Tested on: PC3 (prostate) cells
- experiment.notes: Anti-proliferative activity, Cell-Titre luminescent viability assay
- Format: cell-based
- study.conditions: 72 h exposure, Cell-Titre luminescent reagent
Overview of recorded IC50 for various compounds
Kindly format the answer as number then unit.

QUERY: What IC50 value was documented for this compound, O=C(Nc1ccc(C(F)(F)F)cc1)c1ccn(S(=O)(=O)c2ccc3[nH]ccc3c2)c1 [Compound 26] ?
RESULT: 7.7 µM

QUERY: What IC50 value was documented for this compound, CCC(C)c1ccc(NC(=O)c2ccn(S(=O)(=O)c3ccc4[nH]ccc4c3)c2)cc1 (centres unmarked) [Compound 24] ?
RESULT: 6.2 µM

###

Overview of recorded pIC50 for various molecules
- Test system: SK-N-SH neuroblastoma cells
- experiment.notes: Cytotoxicity assay, MTS viability
- Type: cell-based
- study.conditions: Homo sapiens, 72 hours
pIC50 here is simply -log10 of the concentration when that concentration is written in mol/L.

molecule	pIC50
O=C(Nc1ccc(C(F)(F)F)cc1)C1CCN(S(=O)(=O)c2ccc3[nH]ccc3c2)CC1 [Compound 8]	4.94
CC(C)c1ccc(NC(=O)c2ccn(S(=O)(=O)c3ccc4[nH]ccc4c3)c2)cc1 [Compound 37]	4.96
Cc1ccc(NC(=O)c2ccn(S(=O)(=O)c3ccc4[nH]ccc4c3)c2)cc1O [Compound 25]	4.52

QUERY: What pIC50 value was documented for this molecule, N#Cc1ccc(NC(=O)c2ccn(S(=O)(=O)c3ccc4[nH]ccc4c3)c2)cc1 [Compound 67] ?
RESULT: 4.80

QUERY: What pIC50 value was documented for this molecule, CCC(C)c1ccc(NC(=O)C2CCN(S(=O)(=O)c3ccc4[nH]ccc4c3)CC2)cc1 (centres unmarked) [Compound 6] ?
RESULT: 5.25

###

- Test system: A549 (NSCLC) cells
- experiment.notes: Anti-proliferative activity, Cell-Titre luminescent viability assay
- Type: cell-based
- study.conditions: Homo sapiens, 72 h exposure, Cell-Titre luminescent reagent
Overview of recorded IC50 for various compounds
I only need the number, in µM, no unit after it.

# count of solved cases: 3
structure.smiles	IC50 [µM]
Cc1cc(C)cc(NC(=O)c2ccn(S(=O)(=O)c3ccc4[nH]ccc4c3)c2)c1	10.7
CC(C)(C)c1ccc(S(=O)(=O)n2ccc(C(=O)NCCc3ccc(F)cc3)c2)cc1	6.7
O=C(Nc1ccccc1F)c1ccn(S(=O)(=O)c2ccc3[nH]ccc3c2)c1	4

QUERY: Form field - read-out: IC50; system: A549 (NSCLC) cells; submitted item: `CCc1ccccc1NC(=O)c1ccn(S(=O)(=O)c2ccc3[nH]ccc3c2)c1`
RESULT: 9.8

QUERY: Form field - read-out: IC50; system: A549 (NSCLC) cells; submitted item: `CC(C)Cc1ccc(NC(=O)c2ccn(S(=O)(=O)c3ccc4[nH]ccc4c3)c2)cc1`
RESULT: 13.2

###

- System: A549 (NSCLC) cells
- experiment.notes: Anti-proliferative activity, Cell-Titre luminescent viability assay
- Assay type: cell-based
- study.conditions: Homo sapiens, 72 h exposure, Cell-Titre luminescent reagent
- Procedure: The ability of compounds of the disclosure to inhibit the proliferation of cancer cells representative of non-small cell lung cancer and ovarian cancer (Table 1), and pancreatic cancer, colorectal cancer and prostate cancer (Table 2) was assessed. […] Luminescence was captured using an EnVision multilabel reader and the data for each analogue concentration compared against no treatment control. […]
endpoint.name: IC50 (µM)
I only need the number, in µM, no unit after it.

QUERY: Form field - read-out: IC50; system: A549 (NSCLC) cells; submitted item: `CCc1cccc(NC(=O)c2ccn(S(=O)(=O)c3ccc4[nH]ccc4c3)c2)c1`
RESULT: 12.8

QUERY: Form field - read-out: IC50; system: A549 (NSCLC) cells; submitted item: `O=C(Nc1ccc(Cl)cc1)c1ccn(S(=O)(=O)c2ccc3[nH]ccc3c2)c1`
RESULT: 15.9

QUERY: Form field - read-out: IC50; system: A549 (NSCLC) cells; submitted item: CCC(C)c1ccc(NC(=O)c2ccn(S(=O)(=O)c3ccc4[nH]c(C)c(C)c4c3)c2)cc1 (centres unmarked)
RESULT: 6.2

QUERY: Form field - read-out: IC50; system: A549 (NSCLC) cells; submitted item: `N#Cc1ccc(NC(=O)c2ccn(S(=O)(=O)c3ccc4[nH]ccc4c3)n2)cc1`
RESULT: 6.72

###

Overview of recorded IC50 for various compounds
- Tested on: A549 (NSCLC) cells
- experiment.notes: Anti-proliferative activity, Cell-Titre luminescent viability assay
- Type: cell-based
- study.conditions: Homo sapiens, 72 h exposure, Cell-Titre luminescent reagent
I only need the number, in µM, no unit after it.

compound	reading.unit	observed
CC(C)(C)c1ccc(NC(=O)c2ccn(S(=O)(=O)c3ccc4[nH]ccc4c3)n2)cc1	µM	7.22
O=C(Nc1ccc(F)cn1)c1ccn(S(=O)(=O)c2ccc3[nH]ccc3c2)c1	µM	3.45
O=C(Nc1ccc(F)c(F)c1)c1ccn(S(=O)(=O)c2ccc3[nH]ccc3c2)c1	µM	16.6

QUERY: Form field - read-out: IC50; system: A549 (NSCLC) cells; submitted item: `O=C(Nc1ccc(C(F)(F)F)cc1)c1ccn(S(=O)(=O)c2ccc3[nH]ccc3c2)n1`
RESULT: 18.4

QUERY: Form field - read-out: IC50; system: A549 (NSCLC) cells; submitted item: `O=C(Nc1ccc(Cl)nc1)c1ccn(S(=O)(=O)c2ccc3[nH]ccc3c2)c1`
RESULT: 18.6

QUERY: Form field - read-out: IC50; system: A549 (NSCLC) cells; submitted item: CCC(C)c1ccc(NC(=O)C2CCN(S(=O)(=O)c3ccc4cc[nH]c4n3)CC2)cc1 (centres unmarked)
RESULT: 16.2

QUERY: Form field - read-out: IC50; system: A549 (NSCLC) cells; submitted item: `O=C(Nc1ccc(F)cc1)c1ccn(S(=O)(=O)c2ccc3[nH]ccc3c2)c1`
RESULT: 3.3

QUERY: Form field - read-out: IC50; system: A549 (NSCLC) cells; submitted item: `O=C(Nc1ccc(C(F)(F)F)cc1)c1ccn(S(=O)(=O)c2ccc3c(c2)CCN3)c1`
RESULT: 11.6

Values were extracted from patent US12528792B2.
